Let's look at some compounds and their measured pKa.
# ASSAY_OVERVIEW: pKa of the lipid by TNS fluorescence
# Format: physicochemical
# STUDY_CONDITIONS: pKa
Simply state the number, no unit and no words.

Consider the following illustrative entries.
[
  {
    "COMPOUND": "CCCCCCCC/C=C\\CCCCCCCCOCC(CN1CCCCC1)OCCOCCO[C@H]1CC[C@@]2(C)C(=CC[C@H]3[C@@H]4CC[C@H]([C@H](C)CCCC(C)C)[C@@]4(C)CC[C@@H]32)C1 (stereo partly drawn)",
    "VALUE_OBSERVED": 6.48
  },
  {
    "COMPOUND": "CCCCC/C=C\\C/C=C\\CCCCCCCCOC[C@@H](CN1CCC[C@@H]1C)OCCCOC(=O)CCC(=O)O[C@H]1CC[C@@]2(C)C(=CCC3C2CC[C@@]2(C)C3CC[C@@H]2[C@H](C)CCCC(C)C)C1 (stereo partly drawn)",
    "VALUE_OBSERVED": 6.3
  },
  {
    "COMPOUND": "CCCCC/C=C\\C/C=C\\CCCCCCCCOCC(CN1CCC[C@@H]1C)OCCOCCO[C@H]1CC[C@@]2(C)C(=CCC3C2CC[C@@]2(C)C3CC[C@@H]2[C@H](C)CCCC(C)C)C1 (stereo partly drawn)",
    "VALUE_OBSERVED": 6.56
  }
]

For the compound shown here, CCCCCCCC/C=C\CCCCCCCCOCC(CN1CCOCC1)OCCOCCOC(=O)CO[C@H]1CC[C@@]2(C)C(=CC[C@H]3[C@@H]4CC[C@H]([C@H](C)CCCC(C)C)[C@@]4(C)CC[C@@H]32)C1 (stereo partly drawn) , give the reported pKa.
5.53

Quick one: pKa for CCCCC/C=C\C/C=C\CCCCCCCCOCC(CN1CCCC2CCCCC21)OCCOCCO[C@H]1CC[C@@]2(C)C(=CCC3C2CC[C@@]2(C)C3CC[C@@H]2[C@H](C)CCCC(C)C)C1 (stereo partly drawn) ?
5.85

pKa for CCCCC/C=C\C/C=C\CCCCCCCCOCC(CN1CCc2ccccc2C1)OCCOCCO[C@H]1CC[C@@]2(C)C(=CC[C@H]3[C@@H]4CC[C@H]([C@H](C)CCCC(C)C)[C@@]4(C)CC[C@@H]32)C1 (stereo partly drawn) ?
4.84

Entry CCCCC/C=C\C/C=C\CCCCCCCCOCC(CN1CC[C@@H]2CCCC[C@H]2C1)OCCOCCO[C@H]1CC[C@@]2(C)C(=CCC3C2CC[C@@]2(C)C3CC[C@@H]2[C@H](C)CCCC(C)C)C1 (stereo partly drawn) : reported pKa = ?
6.08

For CCCCC/C=C\C/C=C\CCCCCCCCCCOCC(CN1CCCCC1)OCCO[C@H]1CC[C@@]2(C)C(=CC[C@H]3[C@@H]4CC[C@H]([C@H](C)CCCC(C)C)[C@@]4(C)CC[C@@H]32)C1 (stereo partly drawn) , what is its reported pKa?
6.07

Recorded pKa for CCCCC/C=C\C/C=C\CCCCCCCCOCC(CN1CCC(N(C)C)C1)OCCOCCO[C@H]1CC[C@@]2(C)C(=CC[C@H]3[C@@H]4CC[C@H]([C@H](C)CCCC(C)C)[C@@]4(C)CC[C@@H]32)C1 (stereo partly drawn) , please?
5.88
